meta.source: PubChem BioAssay (Tox21)

# measuredOn: Cytochrome P450 2D6 (Homo sapiens)
# testDescription: Cytochrome P450 Family 2 Subfamily D Member 6 (CYP2D6) small molecule antagonists: luciferase reporter qHTS assay (AID 1671196); note: nearly all actives have a fitted effect of over 50% in size; note: potency is the fitted concentration of half-maximal effect
# conditionNotes: P450-Glo CYP2D6 enzyme assay, luciferin luminescence, 1 h; series mostly up to 115 µM
Records with an inconclusive call do not appear. Calls of active or inactive are those of the source. Calls come from the whole dose curve; as a rule, active = well fitted inhibition curve with a large enough effect in the repeat runs; inconclusive = weak or mixed curves; inactive = no such curve, though single readings can be large or run the other way.
observationType: Potency

Here is how some compounds turned out for Potency.
Request: State the recorded Potency for this entry: CCCCc1ccccc1
Result: inactive

Request: Would you kindly share the measured Potency for COC(=O)c1cc(Oc2ccc(Cl)cc2Cl)ccc1[N+](=O)[O-] ?
Result: 22.4 µM (active)

Request: Endpoint output: Potency of c1cc[n+]2c(c1)-c1cccc[n+]1CC2 . Value?
Result: 7.76 µM (active)

Request: Item [O]=[Cr](=[O])([OH])[O][Cr](=[O])(=[O])[OH] has what recorded Potency?
Result: inactive

Request: Param item = c1ccc2c(c1)cc1ccc3cccc4ccc2c1c34 ; retrieve measured Potency.
Result: inactive

Request: I'd like to know its Potency. The compound in question is Nc1nc(N)c(N)c(N)n1
Result: inactive

Request: Any idea what Potency was measured for C[N+]1(C)[C@@H]2CC[C@H]1CC(OC(=O)C(CO)c1ccccc1)C2 (some centres undefined) ?
Result: inactive

Request: // lookup Potency for O=C(Nc1ccc(F)cc1F)c1cccnc1Oc1cccc(C(F)(F)F)c1
Result: inactive

The following compounds each have a reported value; give each one's Potency.
1. CC(Cc1ccccc1)N(C)Cc1ccco1 (centres undefined)
2. O=c1[nH]c(Cl)c(Cl)cc1Cl
3. N#CC(C#N)=NNc1cccc(Cl)c1
4. CC(C)Br
5. CC(O)C(=O)[O][Hg][c]1ccccc1 (centres undefined)
6. CCC(C)c1cccc(C(C)CC)c1O (centres undefined)

Result:
["0.776 µM (active)", "inactive", "63.3 µM (active)", "inactive", "0.448 µM (active)", "inactive"]

// each listed compound needs a value for Potency
1. NC(=O)C(Cl)Cl
2. [O-][Cl+3]([O-])([O-])O
3. O=C1C2(Cl)C3(Cl)C4(Cl)C(Cl)(Cl)C5(Cl)C3(Cl)C1(Cl)C5(Cl)C24Cl (centres undefined)
4. CNC(=O)Oc1cc(C)cc(C(C)C)c1
5. Cc1cccc(Cc2cnc[nH]2)c1C
6. CCOP(=S)(OCC)Oc1cc(C)nc(N(CC)CC)n1
7. CCOP(=S)(OCC)SC(CCl)N1C(=O)c2ccccc2C1=O (centres undefined)

Result:
inactive
inactive
inactive
39.9 µM (active)
2.45 µM (active)
50.2 µM (active)
39.9 µM (active)

Provide the reported Potency of each entry below, same order.
1. CC(C)N(C(=O)CCl)c1ccccc1
2. CC(C)C(Br)C(=O)NC(N)=O (centres undefined)
3. O=c1c2ccccc2c(=O)c2c1cc(Cl)c1[nH]c3c([nH]c12)c(Cl)cc1c(=O)c2ccccc2c(=O)c13

Result:
["inactive", "inactive", "inactive"]

---

# testDescription: qHTS assay to identify small molecule agonists of the RXR signaling pathway - cell viability counter screen (AID 1159529); note: nearly all actives have a fitted effect of over 50% in size
# conditionNotes: RXR-alpha-bla HEK293T viability, CellTiter-Glo, 16 h; series mostly up to 76.8 µM
Records with an inconclusive call do not appear. Activity calls are given as the source filed them. Calls come from the whole dose curve; as a rule, active = well fitted cell-killing curve with a large enough effect in the repeat runs; inconclusive = weak or mixed curves, or effect the other way; inactive = no such curve, though single readings can be large or run the other way.
API: response.call in Y for active, N for inactive

Request: Recorded test call requested for CCN1CCC2(CC1)COc1cc3c(cc12)N(C(=O)c1ccc(-c2ccc(-c4nnc(C)o4)cc2C)cc1)CC3
Result: Y

Request: Which outcome was assigned to CCc1cccc(C)c1N(C(=O)CCl)[C@@H](C)COC in this test?
Result: N

Request: Status in this test for [F][Sn]([c]1ccccc1)([c]1ccccc1)[c]1ccccc1 ?
Result: Y

Request: # outcome recorded in this test, key = CCCCC(CC)COC(=O)c1ccccc1C(=O)OCC(CC)CCCC (centres undefined)
Result: N

Request: Hey, what did the test say about C=CC(=C)C ?
Result: N

Request: Answer briefly: the call reported for CNC(=O)O/N=C(\C)C(C)S(C)(=O)=O (centres undefined) in this assay.
Result: N

Request: Dear colleague, could you share the recorded outcome for COc1ccc(Cc2nccc3cc(OC)c(OC)cc23)cc1OC when you have a moment?
Result: N

Request: Status in this test for O=C(Nc1ccc(F)cc1F)c1cccnc1Oc1cccc(C(F)(F)F)c1 ?
Result: N

Request: Write down the call the test reported for this compound. Item: NC(=O)C(Cl)Cl
Result: N

Request: Identify the outcome logged in this assay for the compound shown: CCn1cc[n+](C)c1 (tested in a mixture with another compound)
Result: N

Request: Could you kindly confirm the outcome this assay logged for CN1C(=O)[C@@H](NC(=O)c2cc3ccccc3[nH]2)N=C(c2ccccc2)c2ccccc21 ?
Result: N

Request: What call does the record list for O=P(Cl)(Cl)Cl ?
Result: N

Request: Assay outcome for Cc1cccc(Cc2cnc[nH]2)c1C : what was it?
Result: N

Request: How did this test come out for O=C1C[C@@H]2OCC=C3CN4CC[C@]56c7ccccc7N1[C@H]5[C@H]2[C@H]3C[C@H]46 ?
Result: N

Request: Check the results log: what was the call for CCNc1nc(NC(C)C(C)C)nc(SC)n1 (centres undefined) ?
Result: N

Request: Test call for this compound, please: [O]=[Cr](=[O])([OH])[O][Cr](=[O])(=[O])[OH]
Result: Y

---

# testDescription: qHTS assay to identify small molecule agonists of the AP-1 signaling pathway - cell viability counter screen (AID 1159525); note: nearly all actives have a fitted effect of over 55% in size
# conditionNotes: ME-180 (cervical carcinoma) AP-1-bla cells viability, ATP luminescence, 5 h; series mostly up to 76.8 µM
Results filed as inconclusive are left out. Calls of active or inactive are those of the source. The call rests on the fitted dose curve.
Give your call using only these classes: Y = active, N = inactive

Example entries begin here.
Request: Outcome logged for O=C(Nc1ccc(F)cc1F)c1cccnc1Oc1cccc(C(F)(F)F)c1 in this assay:
Result: N

Request: Outcome? CCOP(=S)(OCC)Oc1cc(C)nc(N(CC)CC)n1
Result: N

Request: Per the records of this test, what outcome belongs to O=C(O)[C@H](O)[C@@H](O)C(=O)O ?
Result: N

New cases:
Request: Test call, this compound: ClC(Cl)C(Cl)(Cl)Cl
Result: N

Request: Entry CCCCCCC[CH2][Sn]([Cl])([Cl])[CH2]CCCCCCC : call = ?
Result: N

Request: Each compound tested received a call. Report the one for CN1CCc2cc(Cl)c(O)cc2[C@H]2c3ccccc3CC[C@@H]21 .
Result: N

Request: What did this assay record as the result for CC(=O)[O][Sn]([c]1ccccc1)([c]1ccccc1)[c]1ccccc1 ?
Result: Y

Request: Please indicate how the test categorized [Cl-].[Cl-].[Sn+2] .
Result: N

Request: State the result this test recorded for COc1ccc2c3c1O[C@H]1[C@H](O)CC[C@H]4[C@@H](C2)N(C)CC[C@@]341 .
Result: N

Request: Which result was noted for this compound in the test: CC(C)[C@@H](Nc1ccc(C(F)(F)F)cc1Cl)C(=O)OC(C#N)c1cccc(Oc2ccccc2)c1 (stereo partly drawn)
Result: N

Request: Hi team, can someone confirm the assay call for COC(=O)/C=C(\C)OP(=O)(OC)OC ?
Result: N

Request: Tell me the assay call for BrCCCBr please.
Result: N

Request: Fill in: this test's call for C=CCOC(=O)c1ccccc1N is ___
Result: N

Request: Could you kindly confirm the outcome this assay logged for N#CC(C#N)=NNc1cccc(Cl)c1 ?
Result: N

Request: GET /call?item= CCOP(=O)(OCC)Oc1cc(C)nc(C(C)C)n1 returns the recorded outcome of this test.
Result: N

Request: Hello, I am checking results. What call was entered for COc1ccc2c(c1OC)C(=O)O[C@@H]2[C@H]1c2cc3c(cc2CCN1C)OCO3 ?
Result: N

Request: Kindly provide the recorded test outcome for the following compound: CN1CCc2cc3c(cc2C1O)OCO3 (stereo not drawn)
Result: N

Request: Just curious, what result did CN1C2CCC(C)(C)C1CC(OC(=O)C(O)(c1cccs1)c1cccs1)C2 (stereo not drawn) get here?
Result: N

Request: Please share the test call associated with c1cc[n+]2c(c1)-c1cccc[n+]1CC2 .
Result: N

---

# testDescription: qHTS assay to identify small molecule agonists of the sonic hedgehog signaling (Shh) pathway - cell viability counter screen (AID 1259366); note: nearly all actives have a fitted effect of over 50% in size
# conditionNotes: NIH/3T3 Gli1-Luc viability, CellTiter-Fluor, 24 h; series mostly up to 92.4 µM
Inconclusive results are not listed. Calls of active or inactive are those of the source. Calls follow the shape of the dose curve; as a rule, active = well fitted cell-killing curve with a large enough effect in the repeat runs; inconclusive = weak or mixed curves, or effect the other way; inactive = flat fitted curve, though single readings scatter.
Tick one outcome: yes (1) = active, no (0) = inactive

Request: Could you kindly confirm the outcome this assay logged for O=P(Cl)(Cl)Cl ?
Result: no (0)

Request: // return assay outcome for ClC1(Cl)C2(Cl)C3(Cl)C4(Cl)C(Cl)(Cl)C5(Cl)C3(Cl)C1(Cl)C5(Cl)C24Cl (stereo not given)
Result: no (0)

Request: Outcome logged for O=C(CCCCl)c1ccc(F)cc1 in this assay:
Result: no (0)

Request: Given CC(C)[C@@H](Nc1ccc(C(F)(F)F)cc1Cl)C(=O)OC(C#N)c1cccc(Oc2ccccc2)c1 (stereo not given in full) , state the outcome it received in this test.
Result: no (0)

Request: Call for entry C#CCO :
Result: no (0)

Request: // outcome(item) with item = CCOP(=S)(OCC)SC(CCl)N1C(=O)c2ccccc2C1=O (stereo not given)
Result: no (0)

Request: Which outcome did this test record for the compound O=C(O)[C@H](O)[C@@H](O)C(=O)O ?
Result: no (0)

Request: Hello, I am checking results. What call was entered for CC(Cc1ccc2c(c1)OCO2)NO (stereo not given) ?
Result: no (0)

Request: Hi team, can someone confirm the assay call for FC(F)C(F)(F)OCC(Cn1cncn1)c1ccc(Cl)cc1Cl (stereo not given) ?
Result: yes (1)

Request: Identify the outcome logged in this assay for the compound shown: O=[N+]([O-])[O-].[Tl+]
Result: no (0)

Further cases:
Request: Tell me the assay call for Nc1cc(Cl)ccc1Cl please.
Result: no (0)

Request: Query: recorded result category for O.O.O.O=C([O-])[C@H]([O-])[C@@H]([O-])C(=O)[O-].O=C([O-])[C@H]([O-])[C@@H]([O-])C(=O)[O-].[K+].[K+].[Sb+3].[Sb+3] in this test
Result: no (0)

Request: Short answer needed: outcome of this test for COP(=O)(OC)O/C(=C\Cl)c1cc(Cl)c(Cl)cc1Cl ?
Result: no (0)

Request: How was O=c1c2ccccc2c(=O)c2c1cc(Cl)c1[nH]c3c([nH]c12)c(Cl)cc1c(=O)c2ccccc2c(=O)c13 classified in this test?
Result: no (0)

Request: What classification did CC(C)(C)c1ccc(OP(=O)(Oc2ccccc2)Oc2ccccc2)cc1 end up with in this test?
Result: no (0)
